System: CP238
PROTOCOL DESCRIPTION: qHTS profiling for inhibitors of Plasmodium falciparum proliferation (AID 504749); further: nearly all actives have a fitted effect of over 60% in size
DETAILS: P. falciparum in erythrocytes, SYBR Green DNA, 72 h; series mostly up to 28.7 µM
Experimental: NIH National Institute of Allergy and Infectious Diseases [NIAID] NIH Chemical Genomics Center [NCGC] […] Because mature erythrocytes lack DNA, only Plasmodium-derived DNA is detected. NCGC Assay Protocol Summary: The SYBR Green viability assay was adapted from a method described previously (Plouffe et al., 2008). […] The following morning, fluorescence intensity at 485(14) nm excitation and 535(25) nm emission wavelengths was measured on an EnVision (Perkin Elmer) plate reader. […]
Results filed as inconclusive are left out. The source made the active and inactive calls. The call rests on the fitted dose curve; in most records, active means well fitted inhibition curve with a large enough effect; inconclusive means small, poorly fitted or top-dose-only effect; inactive means flat fitted curve, though single readings scatter.
READOUT LABEL: outcome

Some entries whose results are on file:
NC(=O)NS(=O)(=O)c1ccc(N)cc1    inactive
CC(=O)N(CC(O)CO)c1c(I)c(C(=O)NCC(O)CO)c(I)c(C(=O)NCC(O)CO)c1I (stereo unspecified)    inactive
O=C1c2cccc(O)c2C(=O)c2c(O)cccc21    inactive
CC1CC(OC(=O)c2ccccc2O)CC(C)(C)C1 (stereo unspecified)    inactive
CN1CCN(C(=O)C2CCCCC2)CC1    inactive

Entry `N[C@@H](Cc1ccc(O)cc1)C(=O)O` under CP238 had outcome of inactive

Entry `O=C(NCCCN1CCOCC1)c1ccc(Cl)cc1` under CP238 had outcome of inactive

Entry CCCCCCCCCCC(CO)CCCCCCCC (stereo unspecified) under CP238 had outcome of inactive

Entry `COc1cc(C(=O)NCCCCCC(=O)O)cc(OC)c1OC` under CP238 had outcome of inactive

Entry `Cc1cccc(C(=O)O)c1O` under CP238 had outcome of inactive
